Reference for the values: PubChem BioAssay (EPA / NIEHS)

- Read-out: NAD(P)H dehydrogenase [quinone] 1 (NQO1), NQO1 (gene 1728)
- protocol summary: LTEA_HepaRG_NQO1: Life Technologies and Expression Analysis (LTEA) Assay for NAD(P)H dehydrogenase [quinone] 1 (NQO1) using HepaRG (AID 2283526)
- details: mRNA level, 48 h; actives raise or lower the signal
Calls of active or inactive are those of the source. Rule for the calls: active = hit-call score of the fitted dose curve at least 0.9, where 1 is the maximum; inactive = score below 0.9.
Outcome codes: active, inactive

compound: COc1c(Cl)ccc(Cl)c1C(=O)O
category: inactive
--
compound: C#CCOC(=O)[C@@H](C)Oc1ccc(Oc2ncc(Cl)cc2F)cc1
category: inactive
--
compound: CCOC(=O)C(C)Oc1ccc(Oc2nc3ccc(Cl)cc3o2)cc1 (stereo unspecified)
category: inactive
--
compound: CC(C)(c1ccc(O)cc1)c1ccc(O)cc1
category: inactive
--
compound: COC(=O)c1ccc(I)cc1S(=O)(=O)NC(=O)Nc1nc(C)nc(OC)n1
category: inactive
--
compound: CCCOC(=O)NCCCN(C)C
category: inactive
--
compound: COCCO
category: inactive
--
compound: Oc1ccc(C(c2ccc(O)cc2)C(Cl)(Cl)Cl)cc1
category: active
--
compound: CCSC(=O)N(CC(C)C)CC(C)C
category: inactive
--
compound: CC1(C)C(C=C(Cl)Cl)C1C(=O)OCc1cccc(Oc2ccccc2)c1 (stereo unspecified)
category: inactive
--
compound: N[C@@H](Cc1cc(I)c(Oc2ccc(O)c(I)c2)c(I)c1)C(=O)O
category: inactive
--
compound: c1ccc(Nc2ccccc2)cc1
category: inactive
--
compound: CCOC(=O)NCCOc1ccc(Oc2ccccc2)cc1
category: inactive
--
compound: CCCOC(=O)c1ccc(C(=O)OCCC)nc1
category: inactive
--
compound: CCCCCCC(C)OC(=O)COc1nc(F)c(Cl)c(N)c1Cl (stereo unspecified)
category: inactive
--
compound: O=C(O)C1(C(=O)Nc2ccc(Cl)cc2Cl)CC1
category: inactive
--
compound: COC(=O)CSc1cc(N=c2sc(=O)n3n2CCCC3)c(F)cc1Cl
category: inactive
--
compound: OB(O)O
category: inactive
--
compound: Cc1nn(C)c(Oc2ccccc2)c1C=NOCc1ccc(C(=O)OC(C)(C)C)cc1
category: inactive
--
compound: CCN(Cc1c(F)cccc1Cl)c1c([N+](=O)[O-])cc(C(F)(F)F)cc1[N+](=O)[O-]
category: inactive
--
compound: C[C@]12CC[C@@H]3c4ccc(O)cc4C[C@@H](CCCCCCCCCS(=O)CCCC(F)(F)C(F)(F)F)[C@H]3[C@@H]1CC[C@@H]2O (stereo partly specified)
category: active

* * *

- Read-out: Plasminogen activator inhibitor-1 (PAI1), SERPINE1 (gene 5054)
- protocol summary: BSK_hDFCGF_PAI1: BioMAP Diversity Plus: hDFCGF Assay for Plasminogen activator inhibitor-1 (PAI1) Biomarker Activity (AID 2283066)
- details: primary human foreskin fibroblasts; actives raise or lower the signal
- Description: BSK_hDFCGF is a cell-based, multiplexed-readout assay that uses foreskin fibroblast, a human skin primary cell, with measurements taken at 24 hours after chemical dosing in a 96-well plate.BSK_hDFCGF_PAI1 is an assay component measured in the BSK_hDFCGF assay. It measures PAI-1 antibody related to regulation of gene expression using ELISA technology.Data from the assay component BSK_hDFCGF_PAI1 was analyzed into 1 assay endpoint. […]
The source made the active and inactive calls. Rule for the calls: active = hit-call score of the fitted dose curve at least 0.9, where 1 is the maximum; inactive = score below 0.9.
Outcome codes: active, inactive

molecule: CCCCC(CC)COC(=O)c1ccccc1C(=O)O (centres undefined)
category: inactive

molecule: CCOC(=O)C(C)Oc1ccc(Oc2nc3ccc(Cl)cc3o2)cc1 (centres undefined)
category: inactive

molecule: COC(=O)c1c(Cl)nn(C)c1S(=O)(=O)NC(=O)Nc1nc(OC)cc(OC)n1
category: inactive

molecule: S=C([S-])NCCNC(=S)[S-].[Mn+2]
category: active

molecule: COC(=O)c1cccc(C)c1S(=O)(=O)NC(=O)Nc1nc(OCC(F)(F)F)nc(N(C)C)n1
category: inactive

molecule: COC(=O)c1ccc(I)cc1S(=O)(=O)NC(=O)Nc1nc(C)nc(OC)n1
category: inactive

molecule: CCOC(=O)[C@H](C)Oc1ccc(Oc2nc3ccc(Cl)cc3o2)cc1
category: inactive

molecule: O=C(Nc1ccc([N+](=O)[O-])cc1Cl)c1cc(Cl)ccc1O
category: active

molecule: CCN(CC)C(=O)c1cccc(C)c1
category: inactive

molecule: O=C(O)c1ccccc1
category: inactive

molecule: C=CCOC(Cn1ccnc1)c1ccc(Cl)cc1Cl (centres undefined)
category: active

molecule: CCCOC(=O)NCCCN(C)C
category: inactive

molecule: COC(=O)c1ccc(CNS(C)(=O)=O)cc1S(=O)(=O)NC(=O)Nc1nc(OC)cc(OC)n1
category: inactive

molecule: CN(C)C(=O)Nc1ccc(Cl)c(Cl)c1
category: inactive

molecule: S=C(S)NCCNC(=S)S.[Mn+2].[S-]C([S-])=NCCN=C([S-])[S-].[Zn+2]
category: inactive

molecule: CSC(=O)c1cccc2nnsc12
category: inactive

molecule: O=C(c1ccccc1)C1CCCCC1
category: inactive

molecule: CCNc1nc(N)nc(Cl)n1
category: inactive

molecule: C[C@]12CC[C@@H]3c4ccc(O)cc4C[C@@H](CCCCCCCCCS(=O)CCCC(F)(F)C(F)(F)F)[C@H]3[C@@H]1CC[C@@H]2O (some centres undefined)
category: active

molecule: C#CCOC(=O)[C@@H](C)Oc1ccc(Oc2ncc(Cl)cc2F)cc1
category: inactive

molecule: CCCN(CCC)c1c([N+](=O)[O-])cc(C(F)(F)F)c(N)c1[N+](=O)[O-]
category: active

molecule: COC(=O)CSc1cc(N=c2sc(=O)n3n2CCCC3)c(F)cc1Cl
category: inactive

molecule: CCCOC(=O)c1ccc(C(=O)OCCC)nc1
category: inactive

molecule: CCCCCCC(C)OC(=O)COc1nc(F)c(Cl)c(N)c1Cl (centres undefined)
category: active

* * *

- Read-out: Nuclear factor erythroid 2-related factor 2 (Homo sapiens)
- protocol summary: LTEA_HepaRG_NFE2L2: Life Technologies and Expression Analysis (LTEA) Assay for Nuclear factor erythroid 2-related factor 2 (NFE2L2) Transcription Factor using HepaRG (AID 2283527);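 for Outcome: TaqMan qRT-PCR transcript level normalised to ACTB GAPDH and POLR2A housekeeping genes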
- details: mRNA level, 48 h; actives raise or lower the signal
The source made the active and inactive calls. Rule for the calls: active = hit-call score of the fitted dose curve at least 0.9, where 1 is the maximum; inactive = score below 0.9.
Outcome codes: true (active), false (inactive)

compound: COC(=O)CSc1cc(N=c2sc(=O)n3n2CCCC3)c(F)cc1Cl
category: false
//
compound: CCCCOC(=O)[C@@H](C)Oc1ccc(Oc2ccc(C(F)(F)F)cn2)cc1
category: false
//
compound: CC(=O)[C@H]1CC[C@H]2[C@@H]3CCC4=CC(=O)CC[C@]4(C)[C@H]3CC[C@]12C
category: false
//
compound: C#CCOC(=O)[C@@H](C)Oc1ccc(Oc2ncc(Cl)cc2F)cc1
category: false
//
compound: CCN(CC)C(=O)c1cccc(C)c1
category: false
//
compound: COC(=O)c1ccccc1C(=O)O
category: false
//
compound: O=C(c1ccc(O)cc1O)c1ccc(O)cc1O
category: false
//
compound: Oc1ccc(C(c2ccc(O)cc2)C(Cl)(Cl)Cl)cc1
category: true
//
compound: CCOC(=O)C(C)Oc1ccc(Oc2nc3ccc(Cl)cc3o2)cc1 (stereo not given)
category: false
//
compound: COCCO
category: false
//
compound: O=C(O)c1ccccc1
category: false
//
compound: CCC(C)OC(=O)N1CCCCC1CCO (stereo not given)
category: false
//
compound: CCCCOC(=O)C(C)Oc1ccc(Oc2ccc(C(F)(F)F)cn2)cc1 (stereo not given)
category: false
//
compound: CCNc1nc(N)nc(Cl)n1
category: false
//
compound: Cc1nn(C)c(Oc2ccccc2)c1C=NOCc1ccc(C(=O)OC(C)(C)C)cc1
category: true
//
compound: C[C@]12C[C@H](O)[C@H]3[C@@H](CCC4=CC(=O)CC[C@@]43C)[C@@H]1CC[C@@H]2C(=O)CO
category: false
//
compound: CC(C)(c1ccc(O)cc1)c1ccc(O)cc1
category: false
//
compound: CC(C)(C)[C@@H](O)[C@@H](Cc1ccc(Cl)cc1)n1cncn1
category: false
//
compound: CCCOC(=O)c1ccc(C(=O)OCCC)nc1
category: false
//
compound: OB(O)O
category: false
//
compound: C#C[C@]1(O)CC[C@H]2[C@@H]3CCC4=CC(=O)CC[C@@H]4[C@H]3CC[C@@]21CC
category: false
//
compound: CCOC(=O)COc1cc(-n2ncc(C(F)(F)F)c(C)c2=O)c(F)cc1Cl
category: false
//
compound: CCCCC(CC)CN1C(=O)C2C3C=CC(C3)C2C1=O (stereo not given)
category: false
//
compound: N[C@@H](Cc1cc(I)c(Oc2ccc(O)c(I)c2)c(I)c1)C(=O)O
category: false
//
compound: CCCCC(CC)COC(=O)c1ccccc1C(=O)O (stereo not given)
category: false
//
compound: CCCOC(=O)NCCCN(C)C
category: false
//
compound: c1ccc(Nc2ccccc2)cc1
category: false
//
compound: CC(=O)S[C@@H]1CC2=CC(=O)CC[C@]2(C)[C@H]2CC[C@@]3(C)[C@@H](CC[C@@]34CCC(=O)O4)[C@H]12
category: false
//
compound: CCOC(=O)NCCOc1ccc(Oc2ccccc2)cc1
category: false
//
compound: CCOC(=O)C(C)Oc1ccc(Oc2cnc3cc(Cl)ccc3n2)cc1 (stereo not given)
category: false
